- Procedure Details: Cytotoxicity (MTT) on normal MRC-5 fibroblasts
- Format: cell-based
- Condition Parameters: human, MRC-5 embryonal lung fibroblast cells; 24 h, MTT; read-out: MRC-5 (IC50 µM) Mean
Quantity: IC50 at 24 h (µM)
Numbers only here, please. The scale is µM.

INPUT: Look up IC50 at 24 h for this molecule: COc1cccc2c1C(=O)c1c(O)c3c(c(O)c1C2=O)C[C@@](O)(C(=O)CO)C[C@@H]3O[C@H]1C[C@H](N)[C@H](O)[C@H](C)O1 [Dox., doxorubicin, reference compound]
OUTPUT: 2.73

---

So I've got a bunch of compounds here, and I need their IC50 at 24 h values.
- Procedure Details: Cytotoxicity (MTT) on normal MRC-5 fibroblasts
- Format: cell-based
- Condition Parameters: human

INPUT: Which measured IC50 at 24 h value corresponds to N#CC[Se]C(=O)c1cccs1 ?
OUTPUT: > 100 µM

INPUT: Need IC50 at 24 h of CC(=O)C[Se]C(=O)c1cccs1 , thanks.
OUTPUT: 2.24 µM

INPUT: Value lookup for IC50 at 24 h; key = N#CC[Se]C(=O)c1ccc(F)c(Cl)c1
OUTPUT: > 100 µM

INPUT: IC50 at 24 h for CC(=O)C[Se]C(=O)c1ccc(F)c(Cl)c1 ?
OUTPUT: 3.62 µM

INPUT: Given N#CC[Se]C(=O)c1cc(C(F)(F)F)cc(C(F)(F)F)c1 , state its recorded IC50 at 24 h.
OUTPUT: > 100 µM

INPUT: Quick check: IC50 at 24 h of CC(=O)C[Se]C(=O)c1cc(F)c(F)cc1F ?
OUTPUT: 2.5 µM

INPUT: Data request, read-out IC50 at 24 h, for N#CC[Se]C(=O)c1cccc(F)c1 [N2, Se-(Cyanomethyl) 3-Fluorobenzoselenoate]
OUTPUT: > 100 µM

INPUT: May I ask what IC50 at 24 h has been recorded for N#CC[Se]C(=O)c1cccc(C(F)(F)F)c1 ?
OUTPUT: > 100 µM

INPUT: I would be grateful if you could share the reported IC50 at 24 h for CC(=O)C[Se]C(=O)c1ccccc1F [K2, Se-(2-Oxopropyl) 2-Fluorobenzoselenoate] .
OUTPUT: 2.53 µM

INPUT: Requested field: IC50 at 24 h. Item: N#CC[Se]C(=O)c1ccccc1C(F)(F)F
OUTPUT: > 100 µM

INPUT: Given the entry N#CC[Se]C(=O)c1ccc(Br)cc1 [N3, Se-(Cyanomethyl) 4-Bromobenzoselenoate] , report its measured IC50 at 24 h.
OUTPUT: > 100 µM

INPUT: Which measured IC50 at 24 h value corresponds to CC(=O)C[Se]C(=O)c1cccc(C(F)(F)F)c1 ?
OUTPUT: 3.11 µM
